Test system: HCT-116
Assay: NCI tumour cell line growth inhibition, 48 h
Activity calls are given as the source filed them. Rule as the data show it: active = GI50 up to about 1.1 µM and inactive = higher.
Outcome codes: active, inactive

>>> df
                                    molecule  test_system  label_value
 0  FC(F)(F)c1cccc(/C=N/C23CC4CC(CC(C4)C2)C3)c1      HCT-116     inactive
 1  COc1ccc2[nH]c3cc4c(=O)c5cc(OC)ccc5[nH]c4cc3c(=O)c2c1      HCT-116     inactive
 2  CC(C)[Si](OC1=C(C(=O)N(C)c2ccccc2Cl)CCCCC1)(C(C)C)C(C)C      HCT-116     inactive
 3           O=C(O)CNc1ncc2c(n1)-c1ccccc1OC2      HCT-116     inactive
 4       Cc1c(CCCl)c(Cl)n2c(nc3ccccc32)c1C#N      HCT-116       active
 5  OCCN(C1=NCCN1)/[N+](=C/c1ccccc1O)[CH-]c1ccccc1O      HCT-116     inactive
 6                CN(C)/C=N\c1nncc2[nH]nnc12      HCT-116     inactive
 7            Oc1ccc(NCn2c(=S)sc3ccccc32)cc1      HCT-116     inactive
 8  CCCCCCCCCCCCCCCCCCNC(=O)C(N)Cc1ccc(OCc2ccccc2)cn1 (stereo unspecified)      HCT-116     inactive
 9  CC1=C(C(=O)Nc2ccccc2C)C(c2ccc(N(C)C)cc2)C(C(=O)Nc2ccccc2C)=C(C)N1      HCT-116     inactive
10  Cc1c(C#N)c(N)n(C2OC(CO)C(O)C(O)C2O)c(=S)c1C#N (stereo unspecified)      HCT-116     inactive

Data provenance: ChEMBL document CHEMBL1201862
